# System: UACC-62
# Assay Name: Growth inhibition of human UACC62 cells incubated for 48 hrs by sulforhodamine B assay
# Type: functional, cell-based
# Condition Info: UACC-62, 48 h, read-out: TGI
Quantity Name: TGI (µM)
Response body: numeric value in µM, unit text excluded.

[ask] Answer with the recorded TGI for the compound listed here: `O=C(Nc1cccc(-n2cc(-c3ccncc3)c(-c3cc(O)cc(Cl)c3)n2)c1)c1ccc(N2CCOCC2)c(C(F)(F)F)c1`
[reply] 93.8

[ask] For the compound `O=C(Nc1cccc(-n2cc(-c3ccncc3)c(-c3cc(O)cc(Cl)c3)n2)c1)Nc1ccc(Cl)c(C(F)(F)F)c1` , report TGI.
[reply] 43.8

[ask] Look up and report measured TGI for this entry: `COc1cc(Cl)cc(-c2nn(-c3cccc(NC(=O)Nc4ccc(Cl)c(Cl)c4)c3)cc2-c2ccncc2)c1`
[reply] 16.3

[ask] Using the record for `COc1cc(Cl)cc(-c2nn(-c3cccc(NC(=O)Nc4cccc(C(F)(F)F)c4)c3)cc2-c2ccncc2)c1` , state its measured TGI.
[reply] 33.4

====

Please respond with reported TGI for every item in the list.
# Tested on: SK-MEL-28
# Assay Name: Growth inhibition of human SK-MEL-28 cells incubated for 48 hrs by sulforhodamine B assay
# Assay type: functional, cell-based
# Condition Info: SK-MEL-28, 48 h, read-out: TGI
Supply the numeric figure in µM, leaving out any unit text.

[ask] Tell me its TGI given `COc1cc(Cl)cc(-c2nn(-c3cccc(NC(=O)Nc4ccc(Cl)c(C(F)(F)F)c4)c3)cc2-c2ccncc2)c1` as the entry.
[reply] 84.1

[ask] Answer with the recorded TGI of `COc1cc(Cl)cc(-c2nn(-c3cccc(NC(=O)Nc4ccc(Cl)c(Cl)c4)c3)cc2-c2ccncc2)c1` only.
[reply] 35.6

[ask] Quickly give me recorded TGI for `O=C(Nc1cccc(-n2cc(-c3ccncc3)c(-c3cc(O)cc(Cl)c3)n2)c1)c1ccc(N2CCOCC2)c(C(F)(F)F)c1`
[reply] 32.7

====

Exercise: for every item that follows, state its recorded LC50.
# Test system: K562
# Assay Name: Growth inhibition of human K562 cells incubated for 48 hrs by sulforhodamine B assay
# Type: functional, cell-based
# Condition Info: K562, 48 h, read-out: LC50

[ask] Given the compound `COc1cc(Cl)cc(-c2nn(-c3cccc(NC(=O)Nc4cc(C(F)(F)F)cc(C(F)(F)F)c4)c3)cc2-c2ccncc2)c1` , write its reported LC50.
[reply] > 100 µM

[ask] Report LC50 for `COc1cc(Cl)cc(-c2nn(-c3cccc(NC(=O)c4ccc(N5CCOCC5)c(C(F)(F)F)c4)c3)cc2-c2ccncc2)c1`
[reply] > 100 µM

[ask] Kindly indicate its recorded LC50. Item: `COc1cc(Cl)cc(-c2nn(-c3cccc(NC(=O)Nc4ccc(Cl)c(C(F)(F)F)c4)c3)cc2-c2ccncc2)c1`
[reply] 9.55 µM

[ask] # return recorded LC50 for input `O=C(Nc1cccc(-n2cc(-c3ccncc3)c(-c3cc(O)cc(Cl)c3)n2)c1)Nc1ccc(Cl)c(Cl)c1`
[reply] > 100 µM

====

# System: MDA-MB-231
# Assay Name: Growth inhibition of human MDA-MB-231 cells assessed as cell growth at 1 uM incubated for 48 hrs by sulforhodamine B assay relative to control
# Assay type: functional
# Condition Info: MDA-MB-231, 48 h, read-out: Activity
Quantity Name: growth at 1 µM (%)
Supply the numeric figure in %, leaving out any unit text.

[ask] Please supply the value of reported growth at 1 µM for the item `COc1cc(Cl)cc(-c2nn(-c3cccc(NC(=O)c4ccc(N5CCOCC5)c(C(F)(F)F)c4)c3)cc2-c2ccncc2)c1`
[reply] 78

[ask] Specify measured growth at 1 µM for `O=C(Nc1cccc(-n2cc(-c3ccncc3)c(-c3cc(O)cc(Cl)c3)n2)c1)c1ccc(N2CCOCC2)c(C(F)(F)F)c1` .
[reply] 11

[ask] Provide growth at 1 µM value for the following compound: `COc1cc(Cl)cc(-c2nn(-c3cccc(NC(=O)c4cccc(C(F)(F)F)c4)c3)cc2-c2ccncc2)c1`
[reply] 58

[ask] For `COc1cc(Cl)cc(-c2nn(-c3cccc(NC(=O)Nc4ccc(Cl)c(Cl)c4)c3)cc2-c2ccncc2)c1` , write its growth at 1 µM.
[reply] 85

====

So I've got a bunch of molecules here, and I need their growth at 1 µM values.
# Test system: HOP-62
# Assay Name: Growth inhibition of human HOP62 cells assessed as cell growth at 1 uM incubated for 48 hrs by sulforhodamine B assay relative to control
# Assay type: functional
# Condition Info: HOP-62, 48 h, read-out: Activity
State the answer as a number, implicitly in %.

[ask] Answer with reported growth at 1 µM of `COc1cc(Cl)cc(-c2nn(-c3cccc(NC(=O)c4cccc(C(F)(F)F)c4)c3)cc2-c2ccncc2)c1`
[reply] 101

[ask] Look up and state reported growth at 1 µM for `COc1cc(Cl)cc(-c2nn(-c3cccc(NC(=O)Nc4ccc(Cl)c(C(F)(F)F)c4)c3)cc2-c2ccncc2)c1`
[reply] 84

[ask] Tell me growth at 1 µM reported for `COc1cc(Cl)cc(-c2nn(-c3cccc(NC(=O)c4ccc(N5CCOCC5)c(C(F)(F)F)c4)c3)cc2-c2ccncc2)c1`
[reply] 107

[ask] Note growth at 1 µM for the molecule shown: `COc1cc(Cl)cc(-c2nn(-c3cccc(NC(=O)Nc4cc(C(F)(F)F)cc(C(F)(F)F)c4)c3)cc2-c2ccncc2)c1`
[reply] 40

[ask] Report measured growth at 1 µM; entry is `O=C(Nc1cccc(-n2cc(-c3ccncc3)c(-c3cc(O)cc(Cl)c3)n2)c1)c1cc(C(F)(F)F)cc(C(F)(F)F)c1`
[reply] 100

[ask] Report growth at 1 µM, nothing else, for this molecule: `O=C(Nc1cccc(-n2cc(-c3ccncc3)c(-c3cc(O)cc(Cl)c3)n2)c1)Nc1ccc(Cl)c(C(F)(F)F)c1`
[reply] 96

====

For each of the compounds below, state its growth at 10 µM.
# Test system: IGROV-1
# Assay Name: Growth inhibition of human IGROV1 cells assessed as cell growth at 10 uM incubated for 48 hrs by sulforhodamine B assay relative to control
# Format: functional
# Condition Info: IGROV-1, 48 h, read-out: Activity
Report the figure in % without appending any unit label.

[ask] Jot down growth at 10 µM (IGROV-1) of `O=C(Nc1cccc(-n2cc(-c3ccncc3)c(-c3cc(O)cc(Cl)c3)n2)c1)c1cc(C(F)(F)F)cc(C(F)(F)F)c1` .
[reply] 73

[ask] State measured growth at 10 µM of the compound `O=C(Nc1cccc(-n2cc(-c3ccncc3)c(-c3cc(O)cc(Cl)c3)n2)c1)Nc1ccc(Cl)c(C(F)(F)F)c1` with IGROV-1.
[reply] 30.6

[ask] Lab note: record growth at 10 µM of `O=C(Nc1cccc(-n2cc(-c3ccncc3)c(-c3cc(O)cc(Cl)c3)n2)c1)c1ccc(N2CCOCC2)c(C(F)(F)F)c1` tested on IGROV-1.
[reply] 44.3

[ask] Give measured growth at 10 µM for `COc1cc(Cl)cc(-c2nn(-c3cccc(NC(=O)Nc4ccc(Cl)c(C(F)(F)F)c4)c3)cc2-c2ccncc2)c1` (IGROV-1).
[reply] 30.2

[ask] Fill in growth at 10 µM for `COc1cc(Cl)cc(-c2nn(-c3cccc(NC(=O)c4cc(C(F)(F)F)cc(C(F)(F)F)c4)c3)cc2-c2ccncc2)c1` tested with IGROV-1.
[reply] 100

====

# Test system: NCI-H322M
# Assay Name: Growth inhibition of human NCI-H322M cells incubated for 48 hrs by sulforhodamine B assay
# Assay type: functional, cell-based
# Condition Info: read-out: pGI50 (converted)
Threshold-based label: GI50 under 3 µM gives Condition met, GI50 not under 3 µM gives Condition not met.

[ask] Please determine if `COc1cc(Cl)cc(-c2nn(-c3cccc(NC(=O)Nc4ccc(Cl)c(Cl)c4)c3)cc2-c2ccncc2)c1` is below 3 µM in terms of GI50.
[reply] Condition not met

[ask] Please check: GI50 for `COc1cc(Cl)cc(-c2nn(-c3cccc(NC(=O)c4ccc(N5CCOCC5)c(C(F)(F)F)c4)c3)cc2-c2ccncc2)c1` , strictly under 3 µM or not?
[reply] Condition not met

[ask] Dear reviewer, please state whether `COc1cc(Cl)cc(-c2nn(-c3cccc(NC(=O)c4cccc(C(F)(F)F)c4)c3)cc2-c2ccncc2)c1` has GI50 strictly beneath 3 µM.
[reply] Condition not met

[ask] API: query returns whether the molecule falls strictly under 3 µM in GI50. Query: `O=C(Nc1cccc(-n2cc(-c3ccncc3)c(-c3cc(O)cc(Cl)c3)n2)c1)c1cc(C(F)(F)F)cc(C(F)(F)F)c1`
[reply] Condition not met

[ask] Confirm or reject: GI50 of `COc1cc(Cl)cc(-c2nn(-c3cccc(NC(=O)Nc4cccc(C(F)(F)F)c4)c3)cc2-c2ccncc2)c1` lies strictly below 3 µM
[reply] Condition met

[ask] Please determine if `O=C(Nc1cccc(-n2cc(-c3ccncc3)c(-c3cc(O)cc(Cl)c3)n2)c1)Nc1ccc(Cl)c(Cl)c1` is below 3 µM in terms of GI50.
[reply] Condition met

[ask] Does the reported GI50 of the following molecule sit strictly below 3 µM? `COc1cc(Cl)cc(-c2nn(-c3cccc(NC(=O)Nc4ccc(Cl)c(C(F)(F)F)c4)c3)cc2-c2ccncc2)c1`
[reply] Condition not met
